Test system: Escherichia coli TOP10
Assay Remarks: shrunken log2 fold change of peptide-encoding DNA abundance (4.5 h post-induction vs induction); higher = less antimicrobial activity (less host growth inhibition)
Test Context: time post-induction: 4.5 h; library: site-saturation at positions 5, 18, 19, 20
Criterion: shrunken log2 fold change meeting or surpassing -0.06. Met: yes (1). Not met: no (0).

For orientation, consider the following solved cases.
Query Sequence: RRIRPRPPRLPRPRPRPFNKPRP
Answer Label: no (0)
--
Query Sequence: RRIRGRPPRLPRPRPRPEHHPRP
Answer Label: yes (1)

Decide: is the reported value of shrunken log2 fold change for RRIRMRPPRLPRPRPRPLSQPRP equal to or greater than -0.06?
yes (1)

Decide: is the reported value of shrunken log2 fold change for RRIRQRPPRLPRPRPRPSIHPRP equal to or greater than -0.06?
no (0)

Decide: is the reported value of shrunken log2 fold change for RRIRKRPPRLPRPRPRPCWHPRP equal to or greater than -0.06?
yes (1)

Decide: is the reported value of shrunken log2 fold change for RRIRHRPPRLPRPRPRPDAKPRP equal to or greater than -0.06?
yes (1)

Decide: is the reported value of shrunken log2 fold change for RRIRLRPPRLPRPRPRPWTTPRP equal to or greater than -0.06?
no (0)

Decide: is the reported value of shrunken log2 fold change for RRIRDRPPRLPRPRPRPRKPPRP equal to or greater than -0.06?
yes (1)

Decide: is the reported value of shrunken log2 fold change for RRIRYRPPRLPRPRPRPPLPPRP equal to or greater than -0.06?
yes (1)

Decide: is the reported value of shrunken log2 fold change for RRIRERPPRLPRPRPRPFVNPRP equal to or greater than -0.06?
no (0)

Decide: is the reported value of shrunken log2 fold change for RRIRFRPPRLPRPRPRPFTPPRP equal to or greater than -0.06?
no (0)

Decide: is the reported value of shrunken log2 fold change for RRIRTRPPRLPRPRPRPVDCPRP equal to or greater than -0.06?
no (0)

###

Tested on: Escherichia coli TOP10;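 further: peptides expressed intracellularly from a pBAD plasmid library in pooled LB shake-flask culture, induced with 0.3% L-arabinose, DNA abundance read by NGS, three biological replicates, DESeq2 with apeglm shrinkage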
Assay Remarks: shrunken log2 fold change of peptide-encoding DNA abundance (4.5 h post-induction vs induction); higher = less antimicrobial activity (less host growth inhibition)
Test Context: time post-induction: 4.5 h; library: site-saturation at positions 5, 18, 19, 20
Entries annotated with measured shrunken log2 fold change
Respond numerically, and do not add a unit to the figure.

Example entries and their recorded answers appear below.
Query Sequence: RRIRARPPRLPRPRPRPADAPRP
Readout Value: 0.473
//
Query Sequence: RRIRMRPPRLPRPRPRPGLIPRP
Readout Value: 0.133
//
Query Sequence: RRIRPRPPRLPRPRPRPVSEPRP
Readout Value: -0.0288

Look up shrunken log2 fold change of RRIRNRPPRLPRPRPRPECLPRP and report it.
0.254

Look up shrunken log2 fold change of RRIRGRPPRLPRPRPRPRPIPRP and report it.
0.635

Look up shrunken log2 fold change of RRIRVRPPRLPRPRPRPCLEPRP and report it.
0.0452

Look up shrunken log2 fold change of RRIRIRPPRLPRPRPRPNFGPRP and report it.
-0.0272

Look up shrunken log2 fold change of RRIRPRPPRLPRPRPRPVGQPRP and report it.
0.102
